Tested on: wild-type HIV-IIIB strain
Experiment: Antiviral analysis EGFP: anti-HIV activity in MT4 LTR-EGFP cells
Format: cell-based, HIV-1
Conditions: fluorescence of HIV-infected cells reduced by 50%, three days after infection
pEC50: −log10 of the molar value.
valueKind: pEC50

INSERT INTO results (compound, number) VALUES
  ('CC(=O)NCCCOc1ccc2cc(C#N)c(=O)n(-c3ccc([N+](=O)[O-])cc3)c2c1 [compound 69]', 4.99),
  ('CCN(CC)CCOc1ccc2cc(C#N)c(=O)n(-c3ccc([N+](=O)[O-])cc3)c2c1 [compound 59]', 4.89),
  ('N#Cc1cc2ccc(-c3cncnc3)cc2n(-c2ccc([N+](=O)[O-])cc2)c1=O [compound 31]', 5.10),
  ('N#Cc1c(NCCCO)c2ccccc2n(-c2ccc([N+](=O)[O-])cc2)c1=O [compound 138]', 4.92),
  ('N#Cc1c(NCC2CCNC2)c2ccccc2n(-c2ccc([N+](=O)[O-])cc2)c1=O (centres unmarked) [compound 143]', 4.95);

Data origin: patent US20100087649A1
